target: PI3K delta (Homo sapiens); construct: for the full-length p110-d subunit are generated and fused by overlapping PCR; His tag (C); made in house; host or cells: baculovirus BV1060; Tn5 (Trichoplusia ni) or TiniPro insect cells; assay: PI3K delta kinase assay (Kinase-Glo luminescence); type: biochemical; details: read-out: EPK_PI3Kdelta/IC50
Sequence (O00329 with tags, fused parts or gaps limits assumed): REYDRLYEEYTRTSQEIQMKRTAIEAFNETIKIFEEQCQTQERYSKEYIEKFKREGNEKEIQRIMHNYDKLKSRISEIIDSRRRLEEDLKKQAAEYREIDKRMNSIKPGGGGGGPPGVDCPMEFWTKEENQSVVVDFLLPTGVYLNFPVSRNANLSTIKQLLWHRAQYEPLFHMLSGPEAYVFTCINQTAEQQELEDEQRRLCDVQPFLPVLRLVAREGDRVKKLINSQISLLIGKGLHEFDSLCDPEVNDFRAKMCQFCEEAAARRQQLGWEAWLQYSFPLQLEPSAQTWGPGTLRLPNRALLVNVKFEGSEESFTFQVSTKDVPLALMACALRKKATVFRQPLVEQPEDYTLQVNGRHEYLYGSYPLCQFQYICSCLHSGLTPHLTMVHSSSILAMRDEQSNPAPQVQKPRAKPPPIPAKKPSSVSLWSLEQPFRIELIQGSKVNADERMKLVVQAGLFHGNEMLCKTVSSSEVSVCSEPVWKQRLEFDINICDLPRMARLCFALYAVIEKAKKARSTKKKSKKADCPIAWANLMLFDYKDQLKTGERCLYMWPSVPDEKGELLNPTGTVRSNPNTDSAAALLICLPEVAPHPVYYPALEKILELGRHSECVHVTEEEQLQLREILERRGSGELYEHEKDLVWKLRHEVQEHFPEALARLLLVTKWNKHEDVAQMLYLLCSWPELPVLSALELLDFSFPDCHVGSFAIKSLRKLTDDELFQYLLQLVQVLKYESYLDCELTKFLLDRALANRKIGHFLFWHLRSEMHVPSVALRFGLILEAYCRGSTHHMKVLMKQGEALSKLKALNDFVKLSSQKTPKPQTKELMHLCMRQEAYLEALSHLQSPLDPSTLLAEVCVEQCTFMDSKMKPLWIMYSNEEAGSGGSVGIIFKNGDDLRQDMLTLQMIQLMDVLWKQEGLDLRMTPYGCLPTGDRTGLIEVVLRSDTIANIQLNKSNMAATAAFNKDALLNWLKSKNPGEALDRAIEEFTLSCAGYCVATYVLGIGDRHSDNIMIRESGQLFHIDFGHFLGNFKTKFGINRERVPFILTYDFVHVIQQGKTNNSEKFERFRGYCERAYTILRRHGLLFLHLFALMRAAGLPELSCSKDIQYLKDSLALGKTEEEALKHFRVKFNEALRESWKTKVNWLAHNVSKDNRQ
pIC50: −log10 of the molar value.
valueType: pIC50

[[record]]
compound = "COc1cc(-c2ccc3ncc4c(c3c2)n(-c2ccc(N3CCC(OC)C3)nc2C)c(=O)n4C)cnc1CO (stereo not shown) [Example 28.3]"
system = "PI3K delta (Homo sapiens)"
quantitativeresult = 7.38

[[record]]
compound = "CNc1ncc(-c2ccc3ncc4c(c3c2)n(-c2ccc(N3CC[C@H](O)C3)nc2C)c(=O)n4C)cc1F [Example 32.2]"
system = "PI3K delta (Homo sapiens)"
quantitativeresult = 7.44

[[record]]
compound = "CNc1ncc(-c2ccc3ncc4c(c3c2)n(-c2ccc(N3CCC(OC)C3)nc2C)c(=O)n4C)cn1 (stereo not shown) [Example 28.2]"
system = "PI3K delta (Homo sapiens)"
quantitativeresult = 6.80

[[record]]
compound = "Cc1nc(N2CC(F)(F)C2)ccc1-n1c(=O)n(C)c2cnc3ccc(-c4cncc(C(C)(C)O)c4)cc3c21 [Example 24.2]"
system = "PI3K delta (Homo sapiens)"
quantitativeresult = 7.74

[[record]]
compound = "CCOc1ccc(-c2ccc3ncc4c(c3c2)n(-c2ccc(C(C)(C)O)nc2C)c(=O)n4C)cn1 [Example 31.4]"
system = "PI3K delta (Homo sapiens)"
quantitativeresult = 7.44

[[record]]
compound = "CCNc1ncc(-c2ccc3ncc4c(c3c2)n(-c2ccc(F)nc2C)c(=O)n4C)cn1 [Example 7.18]"
system = "PI3K delta (Homo sapiens)"
quantitativeresult = 7.55

[[record]]
compound = "CNc1ncc(-c2ccc3ncc4c(c3c2)n(-c2ccc(N3CC[C@@H](O)C3)nc2C)c(=O)n4C)cn1 [Example 34.1]"
system = "PI3K delta (Homo sapiens)"
quantitativeresult = 7.38

